- Test system: 409B2 hiPSC (iCRISPR Cas9, FRMD7 editing)
- ASSAY_SUMMARY: MMEJ-attributed deletion frequency relative to solvent control (fold (ratio to mock)); higher = more MMEJ outcomes
- CONDITION_SET: 20 nM
Where a name gives a salt, the structure may show the parent alone.
RECORDED_METRIC: MMEJ-attributed deletion frequency

Ask: Fill in: MMEJ-attributed deletion frequency of CC[C@@]1(O)C(=O)OCc2c1cc1n(c2=O)Cc2cc3c(CN(C)C)c(O)ccc3nc2-1 [Topotecan] (in DMSO) is ___
Result: 0.595

Ask: Same lookup for CC[C@H](CO)Nc1nc(NCc2ccccc2)c2ncn(C(C)C)c2n1 [Roscovitine (Seliciclib,CYC202)] (in DMSO) , please.
Result: 0.952

Ask: Same lookup for NC(=O)CC[C@@H](N)C(=O)O [D-Glutamine] (in H2O) , please.
Result: 0.971

Ask: Same lookup for CC[C@]1(O)C[C@@H]2CN(CCc3c([nH]c4ccccc34)[C@@](C(=O)OC)(c3cc4c(cc3OC)N(C)[C@H]3[C@@](O)(C(=O)OC)[C@H](OC(C)=O)[C@]5(CC)C=CCN6CC[C@]43[C@@H]65)C2)C1 [Vinblastine sulfate] (in DMSO) , please.
Result: 0.779

Ask: Same lookup for CC(=O)O[C@]1(C(C)=O)CC[C@H]2[C@@H]3C=C(Cl)C4=CC(=O)[C@@H]5C[C@@H]5[C@]4(C)[C@H]3CC[C@@]21C [Cyproterone Acetate] (in DMSO) , please.
Result: 1.18

Ask: Same lookup for OC[C@H]1O[C@@H](c2ccc(F)c(Cc3cc4ccccc4s3)c2)[C@H](O)[C@@H](O)[C@@H]1O [Ipragliflozin] (in DMSO) , please.
Result: 0.982
